# system_tested: T1, human CD112R antigen protein huCD112R-His (Acro Biosysterm, PVG-H52H4) (human, UniProt Q6DKI7 41-171)
# T1 construct: purchased; also called human antigen protein; not shown: His tag
# T1 sequence (looked up): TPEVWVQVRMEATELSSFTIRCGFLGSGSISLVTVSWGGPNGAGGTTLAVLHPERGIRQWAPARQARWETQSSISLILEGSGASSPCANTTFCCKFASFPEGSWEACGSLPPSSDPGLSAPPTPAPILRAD
# method: ELISA, huCD112R-His coated on plate
readout_kind: EC50 (nM)

• C51 (antibody, human IgG1, kappa, V domains shown) VH: QVQLQQSGAELVRPGASVTLSCKASGYTFTDYEMHWVKQTPVHGLEWIGAIDPETGGTAYNQKFKGKAILTADKSSSTAYMELRSLTSEDSAVYYCTRWITTVVATLYYFDYWGQGTTLTVSS VL: DIVMTQSQKFMSTSVGDRVSITCKASQNVRTAVAWYQQKPGQSPKALIYLASNRHTGVPDRFTGSGSGTDFTLTISNVQSEDLADYFCLQHWNYPLTFGAGTKLELKR = 0.228
• C13 (antibody, human IgG1, kappa, V domains shown) VH: EVQLQQSGPELVKPGASVKISCKASGYTFTDYFMNWVKQSHGKSLEWIGDINPNNGSPNYNQKFKGRATLTVDKSSSTAYMELRSLTSEDSAVYYCASGYFDVWGTGTTVTVSS VL: DIVMTQSPSSLSVSAGEKVTMSCKSSQSLLNSGTQKNYLAWYQQKPGQPPKLLIYGASTRESGVPDRFTGSGSGTDFTLTISSVQAEDLAVYYCQNDHSYPWTFGGGTKLEIKR = 0.065
• C7 (antibody, human IgG1, kappa, V domains shown) VH: EVQLQQSGPELVKPGASVKISCKASGYTLTDYYMNWVKQSHGKSLEWIGDINPNNGGTNFNQKFKGKATLTIDKSSSTTYMELRSLTSEDSAVYYCASLFFDYWGQGTTLTVSS VL: DIVMTQSPSSLSVSAGEKVTMSCKSSQSLLNSGNQKNYLAWYQQKPGQPPKLLIYGASTRESGVPDRFTGSGSGTDFTLTISSVQAEDLALYYCQNAHSSPYTFGGGTKLEIKR = 0.034
